Where do these numbers come from? They come from patent US9624238B2.

biological target: human notum pectinacetyltransferase (Homo sapiens, UniProt Q6P988); construct: made in house; unpurified conditioned medium used; experiment: Binding assay (OPTS esterase substrate, fluorimetric); assay type: biochemical; conditions: class symbols
Sequence (Q6P988 20-496): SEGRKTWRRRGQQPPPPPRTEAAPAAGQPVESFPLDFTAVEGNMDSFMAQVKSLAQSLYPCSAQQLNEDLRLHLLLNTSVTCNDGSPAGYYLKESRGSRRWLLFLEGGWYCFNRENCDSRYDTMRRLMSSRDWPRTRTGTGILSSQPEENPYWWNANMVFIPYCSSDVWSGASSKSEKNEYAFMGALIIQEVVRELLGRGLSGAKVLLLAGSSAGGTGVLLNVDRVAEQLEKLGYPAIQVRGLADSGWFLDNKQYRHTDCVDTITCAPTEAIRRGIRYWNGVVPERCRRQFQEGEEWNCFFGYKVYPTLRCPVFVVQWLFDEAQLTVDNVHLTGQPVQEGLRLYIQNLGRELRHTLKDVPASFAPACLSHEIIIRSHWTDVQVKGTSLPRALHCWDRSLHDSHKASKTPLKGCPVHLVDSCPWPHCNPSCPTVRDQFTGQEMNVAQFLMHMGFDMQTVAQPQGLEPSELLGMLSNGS
readout-type: IC50

Please review the following examples before continuing.
| molecule | IC50 |
| --- | --- |
| O=C(O)c1cc2c(s1)-c1cc(Cl)cc(Br)c1OC2 | < 1000 nM |
| NC(=O)c1cc2c(s1)-c1ccc(Cl)c(F)c1OC2 | < 50 nM |
| CC1Oc2ccc(F)cc2-c2sc(C(=O)O)cc21 (stereo not drawn) | < 1000 nM |
| COc1ccc2c(c1Cl)CCc1cc(C(=O)NCCN3CCOCC3)sc1-2 | < 1000 nM |
| O=C(NCc1ncco1)c1cc2c(s1)-c1cccc(F)c1CC2 | < 100 nM |

Please examine the following record next.
INPUT: Query: IC50; subject: `Cc1ccc2c(c1F)CCc1cc(C(N)=O)sc1-2`
OUTPUT: < 50 nM
